The following variants are shown together with reported self-cleavage kobs at 10000 uM GlcN6P values.
B1: glmS ribozyme (parent)
chain: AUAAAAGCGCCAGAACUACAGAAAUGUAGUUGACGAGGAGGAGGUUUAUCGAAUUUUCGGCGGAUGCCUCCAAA

Variants of: B1
Assay: self-cleavage kobs at 10000 uM GlcN6P; higher = faster cleavage; RNA array
Conditions: with glucosamine-6-phosphate
Variants at the floor of the assay were thinned out.

Reference set, count: 4
| changes | self-cleavage kobs at 10000 uM GlcN6P |
| --- | --- |
| G44A U46G U54G | 0.000373 s⁻¹ |
| A36C A48G | < 1e-05 s⁻¹ |
| A12U G13U G43A | < 1e-05 s⁻¹ |
| C34A G63U C70A | < 1e-05 s⁻¹ |

Item under review: U30G A36U C50G C67U . Reported self-cleavage kobs at 10000 uM GlcN6P? 0.00055 s⁻¹

Which measured self-cleavage kobs at 10000 uM GlcN6P value corresponds to A12U G60U G66C C68U ? < 1e-05 s⁻¹
